- Tested on: ES8;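 note: growth inhibition of human ES8 cells, read out with a cell viability assay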
- measurement.description: cells
- Format: functional, cell-based, Homo sapiens
- cond: Homo sapiens, ES8
- Description: SANGER: Inhibition of human ES8 cell growth in a cell viability assay.
pIC50: −log10 of the molar value.
readout.kind: pIC50

molecule	readout.kind	result
CN(C)C/C=C/C(=O)Nc1cc2c(Nc3ccc(F)c(Cl)c3)ncnc2cc1O[C@H]1CCOC1 [AFATINIB]	pIC50	< 6.30
COc1ccc(C2=N[C@@H](c3ccc(Cl)cc3)[C@@H](c3ccc(Cl)cc3)N2C(=O)N2CCNC(=O)C2)c(OC(C)C)c1 [NUTLIN-3]	pIC50	< 5.10
CN(Cc1cnc2nc(N)nc(N)c2n1)c1ccc(C(=O)N[C@@H](CCC(=O)O)C(=O)O)cc1 [METHOTREXATE]	pIC50	< 6.70
